The values you see were collected from patent US10280170B2.

Short version: melting point at least 200 °C is 1.0, less is 0.0.

Qu. Reported melting point at or above 200 °C? O=C1c2c(-c3ccc(OCc4ccc(C5CC5)nc4)cc3)c(-c3ccncn3)nn2CCN1CCO [Compound 169]
Ans. 0.0

Qu. Please give the result for O=C1c2c(-c3ccc(OCc4ccc(OC(F)(F)F)cc4)cc3F)c(-c3ccncc3)nn2CCN1CCO [Compound 206] too.
Ans. 0.0

Qu. Please give the result for CC(C)c1ccc(COc2ccc(-c3c(-c4ccncc4)nn4c3C(=O)NCC4)cc2)cc1C#N [Compound 85] too.
Ans. 1.0

Qu. Please give the result for CC(C)c1ccc(COc2ccc(-c3c(-c4ccncc4F)nn4c3C(=O)NCC4)c(F)c2)cc1 [Compound 152] too.
Ans. 1.0

Qu. Please give the result for CCOP(=O)(CCN1CCn2nc(-c3ccncc3)c(-c3ccc(OCc4ccc(C(C)C)cc4)cc3)c2C1=O)OCC [Compound 68] too.
Ans. 0.0

Qu. Please give the result for O=C1NCCn2nc(-c3ccncc3)c(-c3ccc(OCc4ccccc4)cc3)c21 [Compound 130] too.
Ans. 1.0

Qu. Please give the result for O=C1NCCn2nc(-c3ccncc3)c(-c3ccc(OCc4ccc(OC(F)(F)F)cc4)cc3)c21 [Compound 116] too.
Ans. 1.0

Qu. Please give the result for CC(C)c1ccc(COc2ccc(-c3c(-c4ccncc4)nn4c3C(=O)N(CCO)CC4)cc2)cn1 [Compound 81] too.
Ans. 0.0

* * *

- Experimental System: Ros1 enzyme (Homo sapiens)
- Construct: 0.5 μg/ml Ros1 enzyme
- Sequence (P08922 28-2347): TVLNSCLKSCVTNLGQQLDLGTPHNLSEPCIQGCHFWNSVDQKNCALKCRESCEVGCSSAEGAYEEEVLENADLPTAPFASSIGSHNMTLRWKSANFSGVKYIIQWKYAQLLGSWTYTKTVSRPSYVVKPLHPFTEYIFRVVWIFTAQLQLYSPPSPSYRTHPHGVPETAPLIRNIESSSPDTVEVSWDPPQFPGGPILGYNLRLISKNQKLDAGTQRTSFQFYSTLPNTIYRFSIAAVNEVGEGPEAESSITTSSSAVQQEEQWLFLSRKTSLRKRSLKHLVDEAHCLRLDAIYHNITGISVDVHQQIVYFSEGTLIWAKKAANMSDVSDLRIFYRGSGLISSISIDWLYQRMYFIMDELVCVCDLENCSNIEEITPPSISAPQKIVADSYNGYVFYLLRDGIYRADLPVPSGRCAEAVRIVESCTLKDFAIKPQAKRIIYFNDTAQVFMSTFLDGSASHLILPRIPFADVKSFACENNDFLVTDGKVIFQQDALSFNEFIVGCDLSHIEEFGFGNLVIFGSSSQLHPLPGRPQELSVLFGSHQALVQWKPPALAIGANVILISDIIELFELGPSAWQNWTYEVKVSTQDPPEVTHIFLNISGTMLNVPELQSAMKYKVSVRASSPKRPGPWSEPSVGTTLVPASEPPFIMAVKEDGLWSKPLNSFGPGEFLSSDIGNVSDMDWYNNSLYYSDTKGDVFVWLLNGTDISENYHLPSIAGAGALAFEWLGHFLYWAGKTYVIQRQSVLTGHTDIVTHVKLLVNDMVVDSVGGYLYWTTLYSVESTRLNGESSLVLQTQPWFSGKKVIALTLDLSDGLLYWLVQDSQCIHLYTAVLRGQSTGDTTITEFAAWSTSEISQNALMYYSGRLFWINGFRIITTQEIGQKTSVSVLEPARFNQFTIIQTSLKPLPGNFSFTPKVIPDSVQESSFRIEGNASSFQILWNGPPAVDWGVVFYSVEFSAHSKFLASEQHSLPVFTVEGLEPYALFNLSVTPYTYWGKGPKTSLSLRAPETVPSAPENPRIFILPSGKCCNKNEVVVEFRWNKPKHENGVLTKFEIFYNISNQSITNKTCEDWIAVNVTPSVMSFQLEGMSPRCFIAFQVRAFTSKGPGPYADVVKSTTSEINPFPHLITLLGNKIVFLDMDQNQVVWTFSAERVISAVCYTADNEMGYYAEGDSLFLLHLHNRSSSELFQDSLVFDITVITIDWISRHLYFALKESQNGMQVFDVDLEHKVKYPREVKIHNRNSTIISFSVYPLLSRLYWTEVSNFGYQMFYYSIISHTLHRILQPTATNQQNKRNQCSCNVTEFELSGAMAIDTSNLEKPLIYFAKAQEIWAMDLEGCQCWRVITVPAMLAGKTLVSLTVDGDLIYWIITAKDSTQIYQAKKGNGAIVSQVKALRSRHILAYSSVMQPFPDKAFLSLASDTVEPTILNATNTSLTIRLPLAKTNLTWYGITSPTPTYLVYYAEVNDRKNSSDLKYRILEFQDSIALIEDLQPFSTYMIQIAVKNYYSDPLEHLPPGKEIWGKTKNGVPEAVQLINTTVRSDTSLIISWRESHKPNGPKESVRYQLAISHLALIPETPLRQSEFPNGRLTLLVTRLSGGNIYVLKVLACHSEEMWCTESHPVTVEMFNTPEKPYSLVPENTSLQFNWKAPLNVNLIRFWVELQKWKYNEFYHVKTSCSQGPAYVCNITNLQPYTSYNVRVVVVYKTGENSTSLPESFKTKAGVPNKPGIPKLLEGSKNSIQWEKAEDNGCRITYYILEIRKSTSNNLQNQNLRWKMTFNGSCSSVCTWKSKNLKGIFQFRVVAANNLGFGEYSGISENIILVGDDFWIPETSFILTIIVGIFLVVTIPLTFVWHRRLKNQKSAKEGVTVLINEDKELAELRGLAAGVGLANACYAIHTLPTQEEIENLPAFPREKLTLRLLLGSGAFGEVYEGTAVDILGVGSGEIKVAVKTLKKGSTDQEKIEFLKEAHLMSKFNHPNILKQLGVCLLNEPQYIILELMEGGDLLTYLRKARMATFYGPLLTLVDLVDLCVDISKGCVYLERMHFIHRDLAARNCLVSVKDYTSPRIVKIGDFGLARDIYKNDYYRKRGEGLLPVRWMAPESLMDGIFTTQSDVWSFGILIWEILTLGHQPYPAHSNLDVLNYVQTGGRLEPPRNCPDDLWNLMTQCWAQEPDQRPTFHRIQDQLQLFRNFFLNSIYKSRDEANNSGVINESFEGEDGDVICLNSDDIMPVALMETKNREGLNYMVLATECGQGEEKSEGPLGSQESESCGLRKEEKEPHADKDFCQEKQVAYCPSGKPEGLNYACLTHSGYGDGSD
- Experimental Details: Ros1 enzymatic assay
- Assay type: biochemical
- Protocol Conditions: Ros1 enzymatic assay; read-out: ROS1 pIC50 (converted)
Simple rule here: IC50 less than 200 nM is Met, otherwise Not met.

Qu. Dear reviewer, please state whether `CC(C)c1ccc(COc2ccc(-c3c(-c4ccncc4)nn4c3CN(C)CC4)cc2)cc1` has IC50 strictly beneath 200 nM.
Ans. Met

Qu. Please give the result for `CC(C)c1ccc(COc2ccc(-c3c(-c4ccncc4)nn4c3C(=O)N(CCO)CC4)c(F)c2F)cc1` too.
Ans. Met

Qu. Please give the result for `CC(C)(O)c1ccc(COc2ccc(-c3c(-c4ccncc4)nn4c3C(=O)NCC4)cc2)cc1` too.
Ans. Not met

Qu. Please give the result for CC(C)c1ccc(COc2ccc(-c3c(-c4ccncc4)nn4c3C(=O)N(C)C(CO)C4)cc2)cc1 (stereo not shown) too.
Ans. Met

Qu. Please give the result for `COCCOc1cc(COc2ccc(-c3c(-c4ccncc4)nn4c3C(=O)NCC4)cc2)ccc1C` too.
Ans. Not met

Qu. Please give the result for CC(CO)c1ccc(COc2ccc(-c3c(-c4ccncc4)nn4c3C(=O)NCC4)cc2)cc1 (stereo not shown) too.
Ans. Not met

* * *

Exercise: state measured IC50 for each of the compounds provided.
- Experimental System: Ros1 enzyme (Homo sapiens)
- Construct: 0.5 μg/ml Ros1 enzyme
- Experimental Details: Ros1 enzymatic assay
- Format: biochemical
- Protocol Conditions: Ros1 enzymatic assay; read-out: ROS1 pIC50 (converted)
The response must be a number in µM with no trailing unit.

Qu. Field: IC50 (Ros1 enzyme (Homo sapiens)). Entry: `CC(C)c1ccc(COC2CCN(c3c(-c4ccncc4)nn4c3C(=O)NCC4)CC2)cc1`
Ans. 0.251

Qu. Please give the result for `CC(C)Oc1ccc(COc2ccc(-c3c(-c4ccncc4)nn4c3C(=O)NCC4)cc2)cc1` too.
Ans. 0.501

Qu. Please give the result for CC(C)c1ccc(C(C)Oc2ccc(-c3c(-c4ccncc4)nn4c3C(=O)N(CCO)CC4)cc2)cc1 (stereo not shown) [Compound 145] too.
Ans. 3.16

Qu. Please give the result for `CC(C)c1ccc(COc2ccc(-c3c(-c4ccncc4)nn4c3C(=O)N(CCCN)CC4)cc2)cc1` too.
Ans. 0.02
